target: human A2a receptor (Homo sapiens); assay: Adenosine antagonistic activity, radioligand binding with [3H]CGS 21680; conditions: [3H]CGS 21680 20 nM
Sequence (P29274 whole entry): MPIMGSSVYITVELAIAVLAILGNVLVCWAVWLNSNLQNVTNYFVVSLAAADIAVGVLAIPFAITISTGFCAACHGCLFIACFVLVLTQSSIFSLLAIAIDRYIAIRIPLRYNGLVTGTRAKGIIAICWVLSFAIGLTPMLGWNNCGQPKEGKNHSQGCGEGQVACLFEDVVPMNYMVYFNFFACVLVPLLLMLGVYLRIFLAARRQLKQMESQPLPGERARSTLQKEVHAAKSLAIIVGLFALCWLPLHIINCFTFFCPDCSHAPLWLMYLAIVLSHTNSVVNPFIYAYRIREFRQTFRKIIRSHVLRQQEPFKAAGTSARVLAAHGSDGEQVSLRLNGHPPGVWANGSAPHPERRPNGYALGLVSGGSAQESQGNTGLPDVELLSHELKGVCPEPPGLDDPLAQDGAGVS
endpoint: Ki (nM)

Take a look at these entries with their results.
- CC(C)n1cc(-c2nc(CO)c(N)nc2-c2ccccc2)ccc1=O: 7.52
- CCn1cc(-c2nc(C(N)=O)c(N)nc2-c2ccccc2)ccc1=O: 2.34
- CC(C)n1cc(-c2nc(C#N)c(N)nc2-c2ccc(F)c(F)c2)ccc1=O: 6.52

A = CC(C)n1cc(-c2nc(Oc3ccccc3)c(N)nc2-c2ccccc2)ccc1=O
B = CC(C)n1cc(-c2nc(C(=O)NCCO)c(N)nc2-c2ccccc2)ccc1=O
I'd appreciate it if you could identify which of A and B has the greater Ki. Your answer should be the label attached to the chosen record.
B
(B: 1.69 nM, A: 0.32 nM)

A = CC(C)n1cc(-c2ncc(N)nc2-c2cccs2)ccc1=O
B = Cn1cc(-c2nc(C#N)c(N)nc2-c2ccccc2)ccc1=O
C = CC(C)n1cc(-c2nc(Br)c(N)nc2-c2ccccc2)ccc1=O
D = CC(C)n1cc(-c2nc(C(=O)NCC#N)c(N)nc2-c2ccccc2)ccc1=O
E = CC(C)n1cc(-c2nc(-c3ccco3)c(N)nc2-c2ccccc2)ccc1=O
Arrange the 5 molecules from largest to smallest Ki. Form field (ranking): labels in requested order.
B, D, A, E, C

a = CC(C)n1cc(-c2nc(Br)c(N)nc2-c2ccccc2)cc(Br)c1=O
b = CC(C)n1cc(-c2ncc(N)nc2-c2cc(F)cc(F)c2)ccc1=O
Which value of Ki is smaller, the one for a or the one for b ? Your answer should be the label attached to the chosen record.
a
